biological target: T1, bovine thrombin (Bos taurus, UniProt P00735); assay: Thrombin induction of autoinhibited TVMV-based biosensor protease activity (quenched fluorescent TVMV substrate); type: biochemical; settings: biosensor 1 μM, 10 μM protease substrate, presence vs absence of bovine thrombin (1 U per 200 μL)
T1 construct: addition of bovine thrombin (1 U per 200 μL)
For each entry below, report its Fold Induction value.

Ask: Can you share its Fold Induction? I mean this molecule: H6-AP: thrombin-inducible autoinhibited TVMV biosensor, SEQ ID NO: 1 (protein, protease construct) SSGSKALLKGVRDFNPISACVCLLENSSDGHSERLFGIGFGPYIIANQHLFRRNNGELTIKTMHGEFKVKNSTQLQMKPVEGRDIIVIKMAKDFPPFPQKLKFRQPTIKDRVCMVSTNFQQKSVSSLVSESSHIVHKEDTSFWQHWITTKDGQCGSPLVSIIDGNILGIHSLTHTTNGSNYFVEFPEKFVATYLDAADGWCKNWKFNADKISWGSFTLVEDAPEDFMSGLVPRGVGRETVRFAPGSTHHHHHH
Reply: ~50 fold

Ask: Name the recorded Fold Induction for 68-AP: thrombin-inducible autoinhibited TVMV biosensor, SEQ ID NO: 5 (protein, protease construct) SSGSKALLKGVRDFNPISACVCLLENSSDGHSERLFGIGFGPYIIANQHLFRRNNGELTIKTMHGEFKVKNSTQLQMKPVEGRDIIVIKMAKDFPPFPQKLKFRQPTIKDRVCMVSTNFQQKSVSSLVSESSHIVHMRDTSFWQHWITTKDGQCGSPLVSIIDGNILGIHSLTHTTNGSNYFVEFPEKFVATYLDAADGWCKNWKFNADKISWGSFILWEDSGLVPRGVSGEGEYVRFAPGSTHHHHHH .
Reply: ~100 fold

Ask: Value lookup for Fold Induction; key = 2B4-GP: thrombin-inducible autoinhibited TVMV biosensor, SEQ ID NO: 2 (protein, protease construct) SSGSKALLKGVRDFNPISACVCLLENSSDGHSERLFGIGFGPYIIANQHLFRRNNGELTIKTMHGEFKVKNSTQLQMKPVEGRDIIVIKMAKDFPPFPQKLKFRQPTIKDRVCMVSTNFQQKSVSSLVSESSHIVHMRDTSFWQHWITTKDGQCGSPLVSIIDGNILGIHSLTHTTNGSNYFVEFPEKFVATYLDAADGWCKNWKFNADKISWGSFTLVEDAPSGLVPRGVSGEGETVRFGPGSTHHHHHH
Reply: ~17 fold
